# target.system: T1, Cyno plasma sIL-6R (cynomolgus monkey, UniProt A0A2K5WN54 60-396)
# T1 construct: also called cynomolgus sIL-6R
# T1 sequence: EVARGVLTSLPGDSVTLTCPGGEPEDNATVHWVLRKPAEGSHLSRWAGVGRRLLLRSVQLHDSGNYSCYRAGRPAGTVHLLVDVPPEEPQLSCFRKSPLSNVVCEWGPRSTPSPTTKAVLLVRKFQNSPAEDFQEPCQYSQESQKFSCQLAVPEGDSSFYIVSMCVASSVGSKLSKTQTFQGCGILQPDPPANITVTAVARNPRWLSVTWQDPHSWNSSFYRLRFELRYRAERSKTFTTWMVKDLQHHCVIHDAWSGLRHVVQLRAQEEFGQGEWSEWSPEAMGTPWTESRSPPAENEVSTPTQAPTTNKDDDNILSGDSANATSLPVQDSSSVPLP
# assay.comment: plasma potency assay, cyno plasma ([IL6R]: ~0.4 nM, [IL6]: 2.4 nM printed); sIL-6R captured on BN-12, bound IL-6 detected; blocked ligand IL-6
measurement.type: pIC50
Numbers only, as −log10 of the molar value.

{"binder": "PMP7C4 (VHH, not shown: c-myc and (His)6 tags) VHH: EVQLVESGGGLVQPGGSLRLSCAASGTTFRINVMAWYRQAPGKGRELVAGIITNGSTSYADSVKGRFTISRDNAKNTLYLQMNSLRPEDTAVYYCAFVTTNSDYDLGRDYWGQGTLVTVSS", "pIC50": 10.10}
{"binder": "PMP7G7 (VHH, expressed with c-myc and (His)6 tags) VHH: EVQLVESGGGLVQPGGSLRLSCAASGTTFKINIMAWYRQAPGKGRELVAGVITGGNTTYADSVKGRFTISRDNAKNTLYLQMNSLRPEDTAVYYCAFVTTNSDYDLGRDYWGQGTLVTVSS", "pIC50": 9.96}
{"binder": "PMP7F4 (VHH) VHH: EVQLVESGGGLVQPGGSLRLSCAASGTTFKVNVMAWYRQAPGKGRELVAGIINGGSTTYADSVKGRFTISRDNAKNTLYLQMNSLRPEDTAVYYCAFVTTNSDYDLGRDYWGQGTLVTVSS", "pIC50": 10.05}
{"binder": "PMP7G8 (VHH, expressed with c-myc and (His)6 tags) VHH: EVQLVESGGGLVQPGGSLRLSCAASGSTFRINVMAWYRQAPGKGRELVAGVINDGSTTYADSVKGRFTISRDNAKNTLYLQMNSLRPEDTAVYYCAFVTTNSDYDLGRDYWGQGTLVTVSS", "pIC50": 9.85}
{"binder": "PMP7D6 (VHH, not shown: c-myc and (His)6 tags) VHH: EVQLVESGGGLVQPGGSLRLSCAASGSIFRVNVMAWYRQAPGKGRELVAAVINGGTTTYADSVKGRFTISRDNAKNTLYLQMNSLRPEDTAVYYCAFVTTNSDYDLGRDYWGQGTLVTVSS", "pIC50": 10.05}

Now look at this entry.
Exam item: So what's the measured pIC50 for this one? IL6R65 (VHH, also called ILR65; parent Nanobody) VHH: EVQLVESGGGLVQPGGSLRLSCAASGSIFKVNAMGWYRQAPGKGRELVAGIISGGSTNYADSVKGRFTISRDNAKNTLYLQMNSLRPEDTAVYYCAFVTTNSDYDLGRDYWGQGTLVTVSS
Marked response: 8.52

Reference source for all entries: patent US20120077731A1
